Please go through the items and note down their melting point.

Known results for molecules:
structure string	property	result
COc1cc2c(Oc3ccc(NC(=O)c4nn(-c5ccc(F)c(Cl)c5)ccc4=O)cc3F)ccnc2cc1OCCCN1CCC(C)CC1	melting point	112.5 to 113.7 °C
COc1cc2c(Oc3ccc(NC(=O)c4nn(-c5ccc(Cl)c(C(F)(F)F)c5)ccc4=O)cc3F)ccnc2cc1OCCCN1CCOCC1	melting point	203.5 to 204.7 °C
COc1cc2c(Oc3ccc(NC(=O)c4nn(-c5ccccc5)ccc4=O)cc3F)ccnc2cc1OCCCN1CCC(C)CC1	melting point	148.5 to 150.1 °C
COc1ccc(-n2ccc(=O)c(C(=O)Nc3ccc(Oc4ccnc5cc(OCCCN6CCN(C)CC6)c(OC)cc45)c(F)c3)n2)cc1	melting point	167.5 to 169.1 °C
COc1cc2c(Oc3ccc(NC(=O)c4nn(-c5ccc(F)c(Cl)c5)ccc4=O)cc3F)ccnc2cc1OCCCN1CCCCC1	melting point	121.7 to 123.4 °C
COc1cc2c(Oc3ccc(NC(=O)c4nn(-c5ccc(Br)cc5)ccc4=O)cc3F)ccnc2cc1OCCCN1CCN(C)CC1	melting point	159.7 to 161.2 °C

Now take the following molecule into account.
[in] Dear colleague, I am looking for the recorded melting point of the following molecule: COc1cc2c(Oc3ccc(NC(=O)c4nn(-c5ccc(Br)cc5F)ccc4=O)cc3F)ccnc2cc1OCCCN1CCCCC1
[out] 105.9 to 107.4 °C

* * *

Please go through the items and note down their IC50.
# Tested on: HepG2 cells
# experiment notes: MTT cytotoxicity assay, HepG2
# Type: cell-based
# condition details: Homo sapiens, 72 h
Numbers only, in nM.

structure string	assayed target	property	numeric result
COc1cc2c(Oc3ccc(NC(=O)c4nn(-c5ccc(F)cc5)ccc4=O)cc3F)ccnc2cc1OCCCN1CCCCC1	HepG2 cells	IC50	990
COc1cc2c(Oc3ccc(NC(=O)c4nn(-c5ccc(Cl)c(C(F)(F)F)c5)ccc4=O)cc3F)ccnc2cc1OCCCN1CCN(C)CC1	HepG2 cells	IC50	330

List IC50 for every entry below, keeping the order given.
1. COc1cc2c(Oc3ccc(NC(=O)c4nn(-c5ccc(F)c(Cl)c5)ccc4=O)cc3F)ccnc2cc1OCCCN1CCCCC1
2. COc1cc2c(Oc3ccc(NC(=O)c4nn(-c5ccc(Br)cc5)ccc4=O)cc3F)ccnc2cc1OCCCN1CCC(C)CC1
3. COc1cc2c(Oc3ccc(NC(=O)c4nn(-c5ccc(F)cc5)ccc4=O)cc3F)ccnc2cc1OCCCN1CCN(C)CC1
4. COc1cc2c(Oc3ccc(NC(=O)c4nn(-c5ccccc5)ccc4=O)cc3F)ccnc2cc1OCCCN1CCN(C)CC1
5. COc1cc2c(Oc3ccc(NC(=O)c4nn(-c5ccc(Br)cc5)ccc4=O)cc3F)ccnc2cc1OCCCN1CCCCC1

[out]
1280
8840
7510
490
1750

* * *

property: melting point

structure string	property	result
COc1cc2c(Oc3ccc(NC(=O)c4nn(-c5ccc(Cl)cc5)ccc4=O)cc3F)ccnc2cc1OCCCN1CCC(C)CC1	melting point	220.6 to 222.1 °C

List melting point for every entry below, keeping the order given.
1. COc1cc2c(Oc3ccc(NC(=O)c4nn(-c5ccc(Cl)cc5)ccc4=O)cc3F)ccnc2cc1OCCCN1CCN(C)CC1
2. COc1cc2c(Oc3ccc(NC(=O)c4nn(-c5ccc(Br)cc5)ccc4=O)cc3F)ccnc2cc1OCCCN1CCOCC1
3. COc1cc2c(Oc3ccc(NC(=O)c4nn(-c5ccc(Cl)cc5)ccc4=O)cc3F)ccnc2cc1OCCCN1CCOCC1
4. COc1cc2c(Oc3ccc(NC(=O)c4nn(-c5ccc(F)cc5)ccc4=O)cc3F)ccnc2cc1OCCCN1CCC(C)CC1
5. COc1ccc(-n2ccc(=O)c(C(=O)Nc3ccc(Oc4ccnc5cc(OCCCN6CCOCC6)c(OC)cc45)c(F)c3)n2)cc1
6. COc1cc2c(Oc3ccc(NC(=O)c4nn(-c5ccc(Cl)c(C(F)(F)F)c5)ccc4=O)cc3F)ccnc2cc1OCCCN1CCCCC1

[out]
1: 163.5 to 165.3 °C; 2: 125.7 to 127.1 °C; 3: 138.2 to 139.1 °C; 4: 210.1 to 211.4 °C; 5: 153.8 to 155.2 °C; 6: 185.7 to 186.6 °C
